System: SK-MEL-28 melanoma
Experiment: NCI tumour cell line growth inhibition, 48 h
Answer each item with its documented TGI.

[in] Fill blank: measured TGI of the molecule `CCc1cccc(NC(=O)Nc2ccc(Oc3ccc4nc(NC(=O)OC)[nH]c4c3)cc2)c1` is ____.
[out] 9.49 µM

[in] Fill blank: measured TGI of the molecule CC(=O)OC12CC[N+]3(C)CCCCC3C1=Nc1ccccc12 (centres undefined) is ____.
[out] > 100 µM

[in] Fill blank: measured TGI of the molecule COc1cc(/C=C2\NC(=O)C3Cc4c(OC)c(C)c(OC)c(OC)c4C2N3C)c(OC)c(C)c1OC (centres undefined) is ____.
[out] > 100 µM

[in] Fill blank: measured TGI of the molecule `CC(C)CNCCc1ccccn1` is ____.
[out] > 100 µM
